- METHOD_SUMMARY: growth inhibition of tim23-1 ts yeast – luminescence, uHTS, primary screen (AID 463212);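 note: temperature-sensitive mutant grown at 25 °C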
- RUN_PARAMETERS: S. cerevisiae tim23-1 growth, BacTiter-Glo luminescence, 24 h; at 20 µM; active compounds read high
Screen size: about 330,000 compounds; about 4,400 (1.3%) were called active. For the sample, actives were picked, then their nearest neighbours and some compounds at random.
inhibition of 10% or higher: Criterion met. Under 10%: Criterion not met.

[
  {
    "COMPOUND": "CC(=O)N1CN2CN(C(C)=O)CC(C(=O)c3ccc(Br)cc3)(C2)C1",
    "LABEL": "Criterion not met"
  },
  {
    "COMPOUND": "COc1cccc(N2C(=O)NC(=O)/C(=C\\c3ccc([N+](=O)[O-])s3)C2=O)c1",
    "LABEL": "Criterion met"
  },
  {
    "COMPOUND": "Cc1cc2ccccn2c1C(C[N+](=O)[O-])c1c(F)cccc1Cl (stereo not drawn)",
    "LABEL": "Criterion met"
  },
  {
    "COMPOUND": "COc1ccc(N2C(=O)/C(=C/c3ccco3)C(=O)NC2=S)cc1",
    "LABEL": "Criterion met"
  },
  {
    "COMPOUND": "COC(=O)C1=C(c2cc3ccccc3s2)C[C@@H]2CC[C@H]1N2C(=O)NCc1cccc2ccccc12",
    "LABEL": "Criterion met"
  },
  {
    "COMPOUND": "O=c1c2ccccc2nc(-c2ccc(Cl)cc2Cl)n1-c1ccncc1",
    "LABEL": "Criterion met"
  },
  {
    "COMPOUND": "COc1cccc(CN2CCCC(C(=O)c3ccccc3SC)C2)c1O (stereo not drawn)",
    "LABEL": "Criterion not met"
  },
  {
    "COMPOUND": "COC(=O)C1=C(c2ccc(Cl)c(C(F)(F)F)c2)C[C@@H]2CC[C@H]1N2C(=O)NC(C)C",
    "LABEL": "Criterion met"
  }
]
